Test system: OVCAR-8 ovarian
Assay: NCI tumour cell line growth inhibition, 48 h
readout label: TGI

Reference set, count: 2
> print(dat)
                                  structure  value.observed
1  O=C1c2ccccc2C(=O)N1CCCCCCNOCCCN1C(=O)c2ccccc2C1=O        > 100 µM
2     Cc1cc(C)cc(Sc2c([N+](=O)[O-])ncn2C)c1         29.7 µM

// below: TGI requested for another compound
q: Quick one: TGI for "Cc1c(C(=O)O)c2cc3ccccc3cc2c(=O)n1C" ?
a: > 10 µM

###

System: RXF 393 renal
Test: NCI tumour cell line growth inhibition, 48 h; in the data active = GI50 below about 0.43 µM; inactive = the rest
Please state which outcome applies, choosing from active, inactive

Previously resolved entries follow.
> print(dat)
                                   compound  category
1  CC1OC(OC2CC(O)C3(CO)C4C(O)CC5(C)C(C6=CC(=O)OC6)CCC5(O)C4CCC3(O)C2)C(O)C(O)C1O (stereo not drawn)    active
2   CN(C)CCN=Cc1c2ccccc2c(=O)n2c1oc1ccccc12  inactive

Please examine the following record next.
q: Could you please tell me the result logged for CCN(CC)CCCC(Nc1c2ccc(Cl)cc2nc2ccc(OC)cc12)c1ccc(F)cc1 (stereo not drawn) in this assay?
a: inactive

###

Tested on: UACC-257 melanoma
Experiment: NCI tumour cell line growth inhibition, 48 h
readout label: TGI

compound	value observed
N#Cc1c(-c2ccccc2)cc(-c2ccccc2)n(CCCCC(=O)NO)c1=O	12.4 µM
CC(=O)OC1CC2(c3ccccc3)C(=O)c3ccccc3N2O1 (stereo not drawn)	> 100 µM
CCN(CC)CCCC(Nc1c2ccc(Cl)cc2nc2ccc(OC)cc12)c1ccc(F)cc1 (stereo not drawn)	4.1 µM
[C-]#[O+].[Cl][Sn]([Cl])[Cl].[Cl][Sn]([Cl])[Cl].[Pt].c1ccncc1	> 100 µM
CCOP(=O)(OCC)C(Cc1ccc(OC)c(OC)c1)N=C(c1ccccc1)c1ccccc1 (stereo not drawn)	> 100 µM

q: Which TGI reading was recorded for the compound NCC1OC(OC2C(CO)OC(OC3C(O)C(N)CC(N)C3OC3OC(CO)C(O)C(O)C3N)C2O)C(N)C(O)C1O (stereo not drawn) ?
a: > 50 µg/mL

q: // query TGI value for entry COc1cccc(NC(=O)CC(=O)N2NC(C)C(N=Nc3cccc(C(=O)O)c3)C2=O)c1 (stereo not drawn)
a: > 100 µM

q: Give its TGI value. Item: CCN(CC)C(=S)SC1CCOP(=O)(N(CCCl)CCCl)N1C (stereo not drawn)
a: > 56.1 µM

q: Requested read-out: TGI. Entry: "Cc1ccc(S(=O)(=O)Oc2ccc(OS(=O)(=O)c3ccc(C)cc3)c3c2C(=O)c2ccccc2C3=O)cc1"
a: > 100 µM

q: Look at this compound and give its reported TGI. "O=C(c1cccs1)c1c(C(F)(F)F)n([O-])c2ccc(F)cc2[n+]1=O"
a: 2.91 µM

q: I'd like to know its TGI. The compound in question is "O=C1NC(=O)C(C(c2ccc(Cl)cc2)C2C(=O)NC(=O)NC2=O)C(=O)N1"
a: > 100 µM

q: Need TGI, item CC[C@@H](C(=O)[C@@H](C)[C@@H](O)[C@H](C)[C@@H]1O[C@@H]([C@@H](CC)C(=O)O)CC[C@@H]1C)[C@H]1OC2(C=C[C@@H](O)[C@]3(CC[C@@](C)([C@H]4CC[C@](O)(CC)[C@H](C)O4)O3)O2)[C@H](C)C[C@@H]1C (stereo partly drawn)
a: 5.49 µM

q: Consider the compound shown here: "COc1ccc(-c2cc(/C=C3\C(=O)Nc4ccc(OC)cc43)[nH]n2)cc1" What is its recorded TGI?
a: > 100 µM

q: What does the data say about its TGI? Entry: "O=C(CCc1ccc(O)c(O)c1)NCCc1cc(OCc2ccccc2)cc(OCc2ccccc2)c1"
a: > 100 µM

q: # query: TGI of entry "O=C(Nc1ccccc1Br)c1cccc([N+](=O)[O-])c1O"
a: 10.1 µM
